- TEST SYSTEM: Somatostatin receptor type 2 (Homo sapiens)
- Sequence (P30874 whole entry): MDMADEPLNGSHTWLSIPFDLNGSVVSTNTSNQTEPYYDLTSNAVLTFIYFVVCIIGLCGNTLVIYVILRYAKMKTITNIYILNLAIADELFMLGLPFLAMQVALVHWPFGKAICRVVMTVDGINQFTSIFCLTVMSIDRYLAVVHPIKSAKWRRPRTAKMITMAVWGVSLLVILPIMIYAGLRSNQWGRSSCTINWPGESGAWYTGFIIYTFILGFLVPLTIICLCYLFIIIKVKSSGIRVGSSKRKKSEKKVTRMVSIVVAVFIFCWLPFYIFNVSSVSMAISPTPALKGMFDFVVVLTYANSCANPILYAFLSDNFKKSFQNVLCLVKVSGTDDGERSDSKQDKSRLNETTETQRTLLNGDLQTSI
- EXPERIMENTAL PROTOCOL: Antagonist activity at T7 epitope tagged human cloned sst2 expressed in HEK293 cells assessed as intracellular calcium release upto 10 uM
- Assay type: functional, cell-based
The source made the active and inactive calls. The rule behind the calls is not given here.
ENDPOINT: Activity

CPD SMILES	ENDPOINT	ASSAY VALUE
C[C@@H](O)[C@@H]1NC(=O)[C@H](CCCCN)NC(=O)[C@@H](Cc2c[nH]c3ccccc23)NC(=O)[C@H](Cc2ccc(O)c(I)c2)NC(=O)[C@H](NC(=O)[C@@H](Cc2ccc([N+](=O)[O-])cc2)NC(=O)CN2CCN(CC(=O)O)CCN(CC(=O)O)CCN(CC(=O)O)CC2)CSSC[C@@H](C(=O)N[C@H](Cc2ccc(O)cc2)C(N)=O)NC1=O	Activity	inactive
C[C@@H](O)[C@@H]1NC(=O)[C@H](CCCCN)NC(=O)[C@@H](Cc2ccc(NC(N)=O)cc2)NC(=O)[C@H](Cc2ccc(O)cc2)NC(=O)[C@H](NC(=O)[C@H](N)Cc2ccc(Cl)cc2)CSSC[C@@H](C(=O)N[C@@H](Cc2ccc3ccccc3c2)C(N)=O)NC1=O	Activity	inactive
CONC(=O)Nc1ccc(C[C@@H]2NC(=O)[C@H](NC(=O)[C@H](N)Cc3ccc(Cl)cc3)CSSC[C@@H](C(=O)N[C@@H](Cc3ccc4ccccc4c3)C(N)=O)NC(=O)[C@H]([C@@H](C)O)NC(=O)[C@H](CCCCN)NC(=O)[C@@H](Cc3c[nH]c4ccccc34)NC2=O)cc1	Activity	inactive

====

The following molecules have recorded IC50 on Somatostatin receptor type 3 (Homo sapiens).
Sequence (P32745 whole entry): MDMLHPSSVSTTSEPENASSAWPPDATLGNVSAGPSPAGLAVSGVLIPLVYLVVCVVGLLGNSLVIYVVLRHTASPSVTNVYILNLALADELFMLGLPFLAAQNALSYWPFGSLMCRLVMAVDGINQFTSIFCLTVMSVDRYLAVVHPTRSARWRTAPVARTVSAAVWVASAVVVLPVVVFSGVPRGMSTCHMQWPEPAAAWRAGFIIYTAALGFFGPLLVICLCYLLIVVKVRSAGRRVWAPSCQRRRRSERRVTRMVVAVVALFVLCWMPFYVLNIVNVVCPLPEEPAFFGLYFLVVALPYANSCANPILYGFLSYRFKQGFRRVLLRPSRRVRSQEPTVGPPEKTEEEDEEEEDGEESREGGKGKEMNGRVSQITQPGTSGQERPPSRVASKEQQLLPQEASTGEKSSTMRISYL

CPD SMILES	IC50
C[C@@H](O)[C@@H]1NC(=O)[C@H](CCCCN)NC(=O)[C@@H](Cc2ccc(NC(N)=O)cc2)NC(=O)[C@H](Cc2ccc(NC(=O)[C@@H]3CC(=O)NC(=O)N3)cc2)NC(=O)[C@H](NC(=O)[C@H](Cc2ccc(Cl)cc2)NC(=O)CN2CCN(CC(=O)O)CCN(CC(=O)O)CCN(CC(=O)O)CC2)CSSC[C@@H](C(=O)N[C@H](Cc2ccc(O)cc2)C(N)=O)NC1=O	> 1000 nM
C[C@@H](O)[C@@H]1NC(=O)[C@H](CCCCN)NC(=O)[C@@H](Cc2c[nH]c3ccccc23)NC(=O)[C@H](Cc2ccc(O)c(I)c2)NC(=O)[C@H](NC(=O)[C@H](Cc2ccc([N+](=O)[O-])cc2)NC(=O)CN2CCN(CC(=O)O)CCN(CC(=O)O)CCN(CC(=O)O)CC2)CSSC[C@@H](C(=O)N[C@H](Cc2ccc(O)cc2)C(N)=O)NC1=O	> 1000 nM

Now take the following molecule into account.
## Input If you can, please state the reported IC50 value of C[C@@H](O)[C@@H]1NC(=O)[C@H](CCCCN)NC(=O)[C@@H](Cc2ccc(NC(N)=O)cc2)NC(=O)[C@H](Cc2ccc(NC(=O)[C@@H]3CC(=O)NC(=O)N3)cc2)NC(=O)[C@H](NC(=O)[C@H](Cc2ccc(Cl)cc2)NC(=O)CN2CCN(CC(=O)O)CCN(CC(=O)O)CCN(CC(=O)O)CC2)CSSC[C@@H](C(=O)N[C@@H](Cc2ccc3ccccc3c2)C(N)=O)NC1=O .
## Output > 1000 nM
